B1: scFv; the commonest letter at each place (parent)
chain 1: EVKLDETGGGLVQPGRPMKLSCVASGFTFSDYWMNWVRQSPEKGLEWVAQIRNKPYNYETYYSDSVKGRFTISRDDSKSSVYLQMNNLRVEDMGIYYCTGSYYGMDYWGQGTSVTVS
chain 2: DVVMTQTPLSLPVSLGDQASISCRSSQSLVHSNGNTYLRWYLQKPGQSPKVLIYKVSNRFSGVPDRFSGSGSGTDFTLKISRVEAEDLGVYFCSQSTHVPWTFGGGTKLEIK

- Variants of: B1
- test description: Kd (Tite-Seq)
- conditions used: with fluorescein; format: scFv 4-4-20, heavy + light
pKd: −log10 of the molar value.
# Lookup of reported pKd keyed by entry

chain 1 W36I :: 5.88

Challenge: I'd like to know its pKd. The variant in question is chain 1 S30E D31S
Response given: 8.62
